target: human MGL from HeLa cells (Homo sapiens, UniProt Q99685)
Construct: combining endogenously expressed MGL from HeLa cells with test compounds; endogenous in cells; host or cells: HeLa cells / cell homogenates
Sequence (Q99685 whole entry): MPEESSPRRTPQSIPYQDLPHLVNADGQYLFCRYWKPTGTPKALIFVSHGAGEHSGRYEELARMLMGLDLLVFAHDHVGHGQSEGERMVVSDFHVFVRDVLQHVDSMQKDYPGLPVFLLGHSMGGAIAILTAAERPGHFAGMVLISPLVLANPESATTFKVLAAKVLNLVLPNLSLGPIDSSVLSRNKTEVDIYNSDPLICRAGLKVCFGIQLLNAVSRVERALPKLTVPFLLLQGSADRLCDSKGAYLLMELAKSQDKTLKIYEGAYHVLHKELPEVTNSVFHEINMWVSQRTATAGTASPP
experiment-summary: In vitro MGL activity assay: [glycerol-1,3-3H]-oleyl glycerol cleavage by MGL from HeLa cells
Format: biochemical
assay-context: 300 nM [Glycerol-1,3-3H]-oleyl glycerol, one hour
quantity-kind: IC50 (nM)

| compound | IC50 (nM) |
| --- | --- |
| C[C@H]1c2nn(C)c(-c3cc(F)c(F)c(F)c3)c2CCN1C(=O)c1nccc2cc[nH]c12 [Example 376] | 599 |

I: C[C@H]1c2nn(C)c(-c3cc(F)c(F)c(F)c3)c2CCN1C(=O)c1n[nH]c2cc(F)ccc12 [Example 363]
II: COc1c(C(=O)N2CCc3c(nn(C)c3-c3cc(F)c(F)c(F)c3)[C@@H]2C)ccnc1C [Example 599]
III: Cc1ccc(-c2c3c(nn2C)[C@H](C)N(C(=O)c2ccc4ncccc4c2)CC3)cn1 [Example 519]
IV: Cc1ccnc2ccc(C(=O)N3CCc4c(nn(C)c4-c4cc(F)c(F)c(F)c4)[C@@H]3C)cc12 [Example 549]
V: Cc1c(C(=O)N2CCc3c(nn(C)c3-c3cc(F)c(F)c(F)c3)[C@@H]2C)nc2ccccn12 [Example 398]
Sort entries by IC50 from minimum to maximum value. Output spec: a listing of the labels in the requested order. IV, I, II, V, III
(IV: 1.99 nM, I: 44.1 nM, II: 71.4 nM, V: 248 nM, III: 1450 nM)

I: COc1nccc(C(=O)N2CCc3c(nn(C)c3-c3ccc(F)c(C(F)F)c3)[C@@H]2C)c1C [Example 593]
II: C[C@H]1c2nn(C)c(-c3cc(F)c(F)c(F)c3)c2CCN1C(=O)c1cccc2[nH]c(=O)oc12 [Example 587]
Lab note: check whether I or II has the lower measured IC50. Your answer should be the label attached to the chosen record. II

P: C[C@H]1c2nn(C)c(-c3cc(F)c(F)c(F)c3)c2CCN1C(=O)c1ccc2oc(=O)[nH]c2c1 [Example 586]
Q: C[C@H]1c2nn(C)c(-c3cc(F)c(F)c(F)c3)c2CCN1C(=O)c1cnc2ccncc2c1 [Example 488]
Rank P against Q by their IC50 values and give the higher one. Your answer should be the label attached to the chosen record. P
(P: 1000 nM, Q: 227 nM)

a: C[C@H]1c2nn(C)c(-c3cc(F)c(F)c(F)c3)c2CCN1C(=O)c1cccc2c1CNCC2 [Example 575]
b: Cc1cn2nc(C(=O)N3CCc4c(nn(C)c4-c4cc(F)c(F)c(F)c4)[C@@H]3C)ccc2n1 [Example 453]
Lab note: check whether a or b has the lower measured IC50. Your answer should be the label attached to the chosen record. a
(a: 72.7 nM, b: 165 nM)

###

target: human MGL from HeLa cells (Homo sapiens)
Construct: combining endogenously expressed MGL from HeLa cells with test compounds; endogenous in cells; host or cells: HeLa cells / cell homogenates
experiment-summary: In vitro MGL activity assay: [glycerol-1,3-3H]-oleyl glycerol cleavage by MGL from HeLa cells
Format: biochemical
assay-context: 300 nM [Glycerol-1,3-3H]-oleyl glycerol, one hour
pIC50: −log10 of the molar value.
quantity-kind: pIC50

| molecular-string | target | pIC50 |
| --- | --- | --- |
| C[C@H]1c2nn(C)c(-c3cc(F)c(F)c(F)c3)c2CCN1C(=O)c1c[nH]c2ccc(F)cc12 | human MGL from HeLa cells (Homo sapiens) | 7.64 |

a: COc1ccc(-c2c3c(nn2C)[C@H](C)N(C(=O)c2ccc4ncccc4c2)CC3)cn1
b: C[C@H]1c2nn(C)c(-c3cc(F)c(F)c(F)c3)c2CCN1C(=O)c1cnc2cc(F)ccn12
Rank a against b by their pIC50 values and give the higher one. Your answer should be the label attached to the chosen record. b

a: Cc1nc2ncccn2c1C(=O)N1CCc2c(nn(C)c2-c2cc(F)c(F)c(F)c2)[C@@H]1C
b: Cc1cc(C(=O)N2CCc3c(nn(C)c3-c3cc(F)c(F)c(F)c3)[C@@H]2C)c2cnn(C)c2n1
Lab note: check whether a or b has the lower measured pIC50. Your answer should be the label attached to the chosen record. a
